Published Ki for Coagulation factor X (Homo sapiens), assembled from different documents, is shown next.
measurement name: Ki (nM)

>  <compound>
N=C(N)c1ccc(Oc2nc(Oc3ccc(C(=N)N)cc3)c(Cl)cc2Cl)cc1

>  <uom>
nM

>  <assay value>
620

$$$$

A: N=C(N)c1ccc(O)c(CN2CC[C@H](NS(=O)(=O)c3ccc(-c4ccon4)s3)C2=O)c1
B: Cc1cc(C(=O)Nc2ccc(-c3ccccc3S(N)(=O)=O)cc2)n(-c2ccc3ccnc(N)c3c2)n1
Exam item: Looking only at measured Ki, which entry is lower, A or B ? The response must carry the label of the picked entry.
Marked response: B
(B: 0.33 nM, A: 3 nM)

I: COc1ccc(-n2nc(C(F)(F)F)c3c(C)nn(-c4ccc(-c5ccccc5S(N)(=O)=O)cc4)c(=O)c32)cc1
II: COC(=O)Nc1ccc(-c2cnnc([C@H](Cc3ccccc3)NC(=O)/C=C/c3cc(Cl)ccc3-n3cnnn3)c2)cc1
III: COc1ccc(C(=O)NCC2CCN(C3CCNCC3)CC2)cc1OCCc1ccc(Cl)cc1Cl
IV: CC(C)NCc1ccccc1-n1nc(C(F)(F)F)cc1C(=O)Nc1ccc(-c2ccccc2S(C)(=O)=O)cc1F
Exam item: Rank by Ki (largest to smallest). The reply should contain the labels ordered as requested.
Marked response: III, II, IV, I

1: CC[C@H](C)[C@H](NS(=O)(=O)Cc1cccc(C(=O)O)c1)C(=O)N[C@@H](CCSC)C(=O)NCc1ccc(C(=N)N)cc1
2: N=C(N)c1ccc(CNC(=O)[C@@H]2Cc3ccc(cc3)NC(=O)CN3CCCN(CC3)CC(=O)Nc3ccc(cc3)C[C@@H](NS(=O)(=O)Cc3ccccc3)C(=O)N2)cc1
3: CCN(CC)Cc1ccccc1N1CCC(N2CCc3c(C(N)=O)nn(-c4ccc(OC)cc4)c3C2=O)CC1
4: CCOC(=O)CN(CCc1ccc(C(C)C)cc1)S(=O)(=O)c1cc(/C(N)=N/O)ccc1O
Exam item: Please list the entries, largest Ki first. The labels, placed in the requested order, form the answer.
Marked response: 2, 4, 1, 3

A: CSCC[C@H](NC(=O)[C@@H](NS(=O)(=O)Cc1cccc(C(=O)O)c1)[C@@H](C)O)C(=O)NCc1ccc(C(=N)N)cc1
B: Cc1ccccc1NC(=O)OCC(Oc1cccc2sc(C(=N)N)cc12)c1ccccc1 (stereo unspecified)
Exam item: Form: Entry with minimum Ki (choose one): A / B Bench note: the answer is the label of the chosen record.
Marked response: B
